# Target: DNA repair and recombination protein RAD54-like (Homo sapiens, UniProt Q92698)
# Sequence (Q92698 whole entry): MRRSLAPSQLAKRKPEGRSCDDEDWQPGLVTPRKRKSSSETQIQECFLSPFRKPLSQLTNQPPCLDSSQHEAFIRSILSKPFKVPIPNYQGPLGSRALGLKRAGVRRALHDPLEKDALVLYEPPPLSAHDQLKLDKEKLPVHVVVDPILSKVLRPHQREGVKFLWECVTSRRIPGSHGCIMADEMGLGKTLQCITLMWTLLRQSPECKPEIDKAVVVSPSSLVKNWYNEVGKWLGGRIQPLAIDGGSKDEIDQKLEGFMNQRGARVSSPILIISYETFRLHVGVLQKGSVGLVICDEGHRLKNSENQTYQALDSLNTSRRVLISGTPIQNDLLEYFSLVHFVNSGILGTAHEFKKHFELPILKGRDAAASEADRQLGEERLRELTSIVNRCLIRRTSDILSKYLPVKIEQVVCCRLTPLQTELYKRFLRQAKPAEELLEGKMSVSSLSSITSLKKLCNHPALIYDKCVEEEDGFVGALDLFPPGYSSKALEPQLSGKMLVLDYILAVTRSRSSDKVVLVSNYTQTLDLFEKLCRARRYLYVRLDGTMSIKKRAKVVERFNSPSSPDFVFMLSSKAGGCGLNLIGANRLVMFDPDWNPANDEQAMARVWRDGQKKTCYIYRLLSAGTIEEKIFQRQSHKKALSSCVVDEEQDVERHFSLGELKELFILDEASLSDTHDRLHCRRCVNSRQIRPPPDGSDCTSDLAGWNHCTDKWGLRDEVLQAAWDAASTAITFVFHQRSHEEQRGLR
# Test Summary: inhibitors of human RAD54 branch migration, confirmation, biochemical, fluorescence, cherry-picked samples, dose series (AID 651657)
# Type: functional
Active and inactive are the calls of the source.
AC50 values by entry

These recorded examples may help you get a feel for the data.
[[record]]
structure_as_smiles = "Cc1ccsc1-c1cc2nc(NCCCN(C)C)n(C)c(=O)c2s1"
observed_measurement = "47 µM (active)"

[[record]]
structure_as_smiles = "CCN(CC)CCCNC(=O)c1cc2c(O)nc3ccc(C)cc3c2s1"
observed_measurement = "62.4 µM (active)"

[[record]]
structure_as_smiles = "COc1ccc(-c2cnc3c(NC(C)=O)cc(-c4cccc(C(=O)NCCN(C)C)c4)cn23)cc1OC"
observed_measurement = "15.2 µM (active)"

[[record]]
structure_as_smiles = "COc1ccc(-c2nc(NCCCN(C)C)c3ccccc3n2)cc1"
observed_measurement = "6 µM (active)"


Next compound, AC50 to be filled in.
Given the entry Cn1c(NCCN2CCCC2)nc2cc(-c3ccccc3)sc2c1=O , what AC50 was observed with DNA repair and recombination protein RAD54-like (Homo sapiens, UniProt Q92698)?
39.3 µM (active)

---

# Test Summary: Luminescence Cell-Based Dose Confirmation HTS to Identify Activators of 5'UTR Stem-Loop Driven Alpha-Synuclein mRNA Translation in H4 Neuroglioblastoma Cells. [Related pubchem assays: 1829 (Project Summary), 1814 (Primary HTS)]
# Type: functional
Active and inactive are the calls of the source.
Quick reference for EC50 among some molecules

Below are worked cases with known answers.
[[record]]
molecule = "NC(=O)C1(N2CCCCC2)CCN(C2CC(=O)NC2=O)CC1 (centres undefined)"
observed_measurement = "> 120 µM (not active)"

[[record]]
molecule = "Cc1cc(C)c(-c2nc3ccccc3s2)[nH]1"
observed_measurement = "0.207 µM (active)"

[[record]]
molecule = "c1ccc(CCN2CN=C(Nc3nc4ccccc4o3)NC2)cc1"
observed_measurement = "14.3 µM (active)"


From here, focus on the item given below.
Dear colleague, I am looking for the recorded EC50 of the following molecule: O=C(COc1ccc(Cl)cc1Cl)NC(=O)N1CCCCC1
6.03 µM (active)
